Test: qHTS assay to identify small molecule antagonists of the vitamin D receptor (VDR) signaling pathway - cell viability counter screen (AID 743225); also: % is scaled to controls: 0 for no effect and ±100 for the full control effect; nearly all actives have a fitted effect of over 50% in size
Conditions: VDR-bla HEK293T viability, CellTiter-Glo luminescence, 16 h; series mostly up to 61 µM
Results filed as inconclusive are left out. Calls of active or inactive are those of the source. Calls follow the shape of the dose curve; as a rule, active = well fitted cell-killing curve with a large enough effect in the repeat runs; inconclusive = weak or mixed curves, or effect the other way; inactive = no such curve, though single readings can be large or run the other way.
readout.type: viability change, negative = cytotoxic

Would you please look over these solved cases?
molecule: COC(=O)C1CC(=O)C(C(=O)OC)CC1=O (centres undefined)
test.value: 3.99% [at 6.95 µM] (inactive)
--
molecule: COc1nccnc1NS(=O)(=O)c1ccc(N)cc1
test.value: inactive
--
molecule: NCCS
test.value: inactive
--
molecule: CCOC(=O)CC(=O)c1ccccc1
test.value: inactive
--
molecule: O=C(O)c1cc(Br)c(O)c(Br)c1
test.value: inactive
--
molecule: Cc1ccccc1N=O
test.value: inactive
--
molecule: CCCC(=O)C(C)=O
test.value: inactive
--
molecule: CC(C)CC(=O)O
test.value: inactive
--
molecule: C=CCCCCCCCCCCCC
test.value: inactive
--
molecule: O=C(OCC(O)CO)c1ccccc1Nc1ccnc2c(C(F)(F)F)cccc12 (centres undefined)
test.value: inactive

Hi there! I need viability change, negative = cytotoxic for each item below, if you can.
1. CO[C@@H]1[C@@H](OC(N)=O)[C@@H](O)[C@H](Oc2ccc3c(O)c(NC(=O)c4ccc(O)c(CC=C(C)C)c4)c(=O)oc3c2C)OC1(C)C
2. CCCCCOC(=O)CCC
3. COc1ccc(C2CNC(=O)C2)cc1OC1CCCC1 (centres undefined)

*A*
1: inactive; 2: inactive; 3: inactive

*Q* What does the record list as viability change, negative = cytotoxic for `Cc1[nH]cnc1-c1ccc(Cl)cc1` ?
*A* inactive

----------
Test: qHTS RealTime-Glo MT Cell Viability Assay in HEK293 cells - 16 hour (AID 1224872); also: top concentration of the series differs between compounds; % is scaled to controls: 0 for no effect and ±100 for the full control effect; nearly all actives have a fitted effect of over 50% in size
Details: RealTime-Glo luminescence; series mostly up to 76.8 µM
Records with an inconclusive call do not appear. Active and inactive are the calls of the source. The call rests on the fitted dose curve; in most records, active means well fitted cell-killing curve with a large enough effect in the repeat runs; inconclusive means weak or mixed curves, or effect the other way; inactive means flat fitted curve, though single readings scatter.
readout.type: activity change, negative = cytotoxicity

compound: CC1=C(C(=O)O)N2C(=O)[C@@H](NC(=O)[C@H](N)c3ccc(O)cc3)[C@H]2SC1
activity change, negative = cytotoxicity: inactive
--
compound: C[C@H](CCC(=O)O)[C@H]1CC[C@H]2[C@@H]3C(=O)C[C@@H]4CC(=O)CC[C@]4(C)[C@H]3CC(=O)[C@]12C
activity change, negative = cytotoxicity: inactive
--
compound: CC(C)CC(C)CC(C)CC(C)COC(=O)c1ccccc1C(=O)OCC(C)CC(C)CC(C)CC(C)C (centres undefined)
activity change, negative = cytotoxicity: inactive
--
compound: O=C1O[C@@H]2[C@@H](O)[C@H](O)O[C@@H]2[C@H]1O
activity change, negative = cytotoxicity: inactive
--
compound: CC(C)NCC(O)COc1cccc2[nH]ccc12 (centres undefined)
activity change, negative = cytotoxicity: inactive
--
compound: CC(C)c1ccc2cc(C(C)C)ccc2c1
activity change, negative = cytotoxicity: inactive

Hi there! I need activity change, negative = cytotoxicity for each item below, if you can.
1. COc1cc2c(cc1OC)C(=O)CC2
2. CC(=O)OC(C)OC(=O)C(C)c1ccc(-c2ccccc2)c(F)c1 (centres undefined)
3. CC(C)(C)c1cc(CCC(=O)NN)cc(C(C)(C)C)c1O
4. OCCC(F)(F)C(F)(F)C(F)(F)C(F)(F)C(F)(F)C(F)(F)C(F)(F)C(F)(F)F
5. C=C(C)C(=O)OCCOP(=O)(O)OCCOC(=O)C(=C)C

*A*
inactive
inactive
inactive
inactive
inactive

Hi there! I need activity change, negative = cytotoxicity for each item below, if you can.
1. CC(C)C(=O)OCc1cccc(OC(=O)[C@@H]2N3C(=O)[C@@H](NC(=O)Cc4ccccc4)[C@H]3SC2(C)C)c1
2. CC/C=C\CC1=C(C)CCC1=O
3. CCCCCCOC(=O)CC
4. CC(C)(C)c1nnc(NS(=O)(=O)c2ccc(N)cc2)s1

*A*
["inactive", "inactive", "inactive", "inactive"]

Hi there! I need activity change, negative = cytotoxicity for each item below, if you can.
1. C=CC(OCC)OCC
2. O=C1CCCC(=O)O1
3. COc1ccc2c(c1)C(=O)N(CCc1ccc(S(=O)(=O)NC(=O)NC3CCCCC3)cc1)C(=O)C2(C)C
4. O=C(CCNNC(=O)c1ccncc1)NCc1ccccc1
5. NC(CO)C(=O)NNCc1ccc(O)c(O)c1O (centres undefined)
6. CC(C)CCCC(C)(C)O
7. Oc1cn2c(n1)Nc1ccc(Cl)c(Cl)c1C2
8. OC[C@H](Cc1cccc(O)c1)[C@H](CO)Cc1cccc(O)c1

*A*
1. inactive
2. inactive
3. inactive
4. inactive
5. inactive
6. inactive
7. 6.18% [at 15.8 µM] (inactive)
8. inactive

*Q* What does the record list as activity change, negative = cytotoxicity for `CCCCNc1ccc(C(=O)OCCN(C)C)cc1` ?
*A* inactive

----------
Molecular target: Vitamin D3 receptor (Homo sapiens) (UniProt P11473)
Sequence (P11473 whole entry, looked up): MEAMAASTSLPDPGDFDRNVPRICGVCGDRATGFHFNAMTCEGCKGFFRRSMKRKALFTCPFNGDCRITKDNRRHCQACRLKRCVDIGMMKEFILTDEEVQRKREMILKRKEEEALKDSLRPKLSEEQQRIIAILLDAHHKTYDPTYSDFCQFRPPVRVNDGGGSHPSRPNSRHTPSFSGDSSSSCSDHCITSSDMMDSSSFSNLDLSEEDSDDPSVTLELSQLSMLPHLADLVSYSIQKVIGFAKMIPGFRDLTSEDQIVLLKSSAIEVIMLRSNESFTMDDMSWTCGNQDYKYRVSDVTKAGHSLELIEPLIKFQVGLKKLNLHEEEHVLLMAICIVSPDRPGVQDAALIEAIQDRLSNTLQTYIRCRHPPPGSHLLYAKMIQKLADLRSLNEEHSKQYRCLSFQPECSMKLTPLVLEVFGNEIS
Test: qHTS assay to identify small molecule antagonists of the vitamin D receptor (VDR) signaling pathway (AID 743223); also: % is scaled to controls: 0 for no effect and ±100 for the full control effect
Settings: VDR-UAS-bla HEK293T, beta-lactamase FRET ratio, 16 h; series mostly up to 61 µM
Records with an inconclusive call do not appear. Calls of active or inactive are those of the source. The call rests on the fitted dose curve; in most records, active means well fitted inhibition curve with a large enough effect in the signal ratio in the repeat runs (not every such curve was filed as active); inconclusive means weak or mixed curves, or effect the other way; inactive means no such curve, though single readings can be large or run the other way; the % refers to the signal ratio.
readout.type: activity change, negative = inhibition

compound: O=C(OCC(COC(=O)c1cccnc1)(COC(=O)c1cccnc1)COC(=O)c1cccnc1)c1cccnc1
activity change, negative = inhibition: inactive
//
compound: CC(C)(C)NC(N)=O
activity change, negative = inhibition: inactive
//
compound: C=C(C)C(=O)OCc1ccccc1
activity change, negative = inhibition: inactive
//
compound: C=C(C)C1CCC(C)(O)CC1 (stereo not drawn)
activity change, negative = inhibition: inactive
//
compound: CC(=O)Nc1ccc(S(=O)(=O)Cl)cc1
activity change, negative = inhibition: inactive
//
compound: Nc1ncnc(Nc2ccccc2)n1
activity change, negative = inhibition: inactive
//
compound: CNS(=O)(=O)CCc1ccc2[nH]cc(C3CCN(C)CC3)c2c1
activity change, negative = inhibition: inactive
//
compound: CCOCCOC(=O)/C=C/c1ccc(OC)cc1
activity change, negative = inhibition: inactive
//
compound: Nc1ccc([N+](=O)[O-])c(N)c1
activity change, negative = inhibition: inactive
//
compound: Cc1ccsc1/C=C/C1=NCCCN1C
activity change, negative = inhibition: inactive

Hi there! I need activity change, negative = inhibition for each item below, if you can.
1. CCCOC(=O)C(C)O (stereo not drawn)
2. Cc1cc2cc3c(C)cc(=O)oc3c(C)c2o1
3. COc1nccnc1NS(=O)(=O)c1ccc(N)cc1

*A*
1: inactive; 2: inactive; 3: inactive

----------
Target: Cytochrome P450 1A2 (Homo sapiens)
Test: Cytochrome P450 Family 1 Subfamily A Member 2 (CYP1A2) small molecule antagonists: luciferase reporter qHTS assay (AID 1671199); also: % is scaled to controls: 0 for no effect and ±100 for the full control effect; nearly all actives have a fitted effect of over 50% in size
Details: P450-Glo CYP1A2 enzyme, luciferin luminescence, 1 h; series mostly up to 53 µM
Results filed as inconclusive are left out. Active and inactive are the calls of the source. Calls follow the shape of the dose curve; as a rule, active = well fitted inhibition curve with a large enough effect in the repeat runs; inconclusive = weak or mixed curves; inactive = no such curve, though single readings can be large or run the other way.
Return exactly one item of active, inactive

Worked examples follow.
molecule: CC(=O)NCc1c(I)c(NC(C)=O)c(I)c(C(=O)O)c1I
class.name: inactive

molecule: O=C1c2cccc3c2[C@H](CCC3)CN1[C@@H]1CN2CCC1CC2
class.name: inactive

molecule: O=S(=O)(O)c1cc(O)c2ccc(Nc3ccccc3)cc2c1
class.name: inactive

Consider the record given below.
*Q* Which outcome was entered for the molecule `Cc1cccc2nccnc12` in this test?
*A* inactive

----------
Experiment: qHTS assay for identifying genotoxic compounds that show differential cytotoxicity against isogenic chicken DT40 cell lines with known DNA damage response pathways - wild type cell line (AID 743012); also: % is scaled to controls: 0 for no effect and ±100 for the full control effect; nearly all actives have a fitted effect of over 60% in size
Conditions: DT40 wild type chicken cells viability, CellTiter-Glo, 40 h; series mostly up to 68.4 µM
Records with an inconclusive call do not appear. Calls of active or inactive are those of the source. Calls come from the whole dose curve; as a rule, active = well fitted cell-killing curve with a large enough effect in the repeat runs; inconclusive = weak or mixed curves, or effect the other way; inactive = no such curve, though single readings can be large or run the other way.
Return exactly one item of active, inactive

Worked examples follow.
compound: Nc1nnc(-c2cccc(Cl)c2Cl)c(N)n1
class.name: inactive
//
compound: CC(C(=O)O)c1ccc2c(c1)CC(=O)c1ccccc1S2 (stereo not drawn)
class.name: inactive
//
compound: O=C(OCc1ccccc1)C(=O)OCc1ccccc1
class.name: inactive

Consider the record given below.
*Q* Which outcome was entered for the compound `NCCS` in this test?
*A* inactive

----------
Target: Nuclear receptor subfamily 1 group I member 2 (Homo sapiens) (UniProt O75469)
Sequence (O75469 whole entry, looked up): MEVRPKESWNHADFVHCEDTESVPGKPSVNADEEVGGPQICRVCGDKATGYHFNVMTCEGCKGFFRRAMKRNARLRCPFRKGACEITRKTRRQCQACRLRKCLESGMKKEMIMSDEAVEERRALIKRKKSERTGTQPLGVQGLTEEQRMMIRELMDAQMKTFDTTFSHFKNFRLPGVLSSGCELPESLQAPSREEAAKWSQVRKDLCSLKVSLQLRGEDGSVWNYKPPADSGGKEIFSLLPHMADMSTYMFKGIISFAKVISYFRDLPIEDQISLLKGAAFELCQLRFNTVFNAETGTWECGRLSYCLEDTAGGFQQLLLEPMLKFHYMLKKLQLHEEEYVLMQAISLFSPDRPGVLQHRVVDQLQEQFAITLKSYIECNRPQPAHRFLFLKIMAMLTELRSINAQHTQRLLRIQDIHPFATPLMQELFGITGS
Assay: Human pregnane X receptor (PXR) small molecule agonists, qHTS assay (AID 1346982); also: nearly all actives have a fitted effect of over 35% in size; as to activation: % is scaled to controls: 0 for no effect and ±100 for the full control effect
Conditions: PXR-Luc HepG2, CYP3A4 luciferase reporter, 24 h; series mostly up to 92.4 µM
Text: National Center for Advancing Translational Sciences [NCATS] NIH Chemical Genomics Center [NCGC] U.S. Environmental Protection Agency [EPA] National Institutes of Environmental Health Sciences [NIEHS] National Toxicology Program [NTP] The human pregnane X receptor (hPXR) regulates the expression of several drug metabolizing enzymes and induction of these proteins is a major mechanism for developing drug resistance in cancer. […]
Inconclusive results are not listed. Active and inactive are the calls of the source. The call rests on the fitted dose curve; in most records, active means well fitted activation curve with a large enough effect in the repeat runs; inconclusive means weak or mixed curves; inactive means no such curve, though single readings can be large or run the other way.
Return exactly one item of label 1 (active), label 0 (inactive)

Worked examples follow.
molecule: CC(C)=CCOC(=O)c1ccccc1
class.name: label 0
--
molecule: OCCCCC(O)CO (stereo not given)
class.name: label 0
--
molecule: CC(C)(C)OC(=O)c1ccc(O)cc1
class.name: label 1
--
molecule: CCC(C=O)CC
class.name: label 0
--
molecule: CCCCCCCCC1CCC(=O)O1 (stereo not given)
class.name: label 1

*Q* Which outcome was entered for the molecule CC(=O)/C=C/C1C(C)=CCC(C)C1(C)C (stereo not given) in this test?
*A* label 1

*Q* Which outcome was entered for the molecule `C=COCCOCCOCCOC=C` in this test?
*A* label 0

*Q* Which outcome was entered for the molecule `CCOC(=O)c1ccc(OC(=O)CCCCCN=C(N)N)cc1` in this test?
*A* label 0

*Q* Which outcome was entered for the molecule `CN(C)C(=O)CNC(=O)Cc1ccccc1` in this test?
*A* label 0
